target: HIV-1 Env of pseudovirus SC422661.8 (HIV-1); assay: cell-based or functional assay
Property: neutralization IC80

// known answers, use as guide
1) MS-88 (antibody, V domains shown) VH: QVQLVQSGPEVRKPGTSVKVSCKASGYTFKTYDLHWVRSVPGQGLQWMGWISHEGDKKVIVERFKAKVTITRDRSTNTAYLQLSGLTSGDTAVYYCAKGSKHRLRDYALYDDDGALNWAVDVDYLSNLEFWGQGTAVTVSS VL: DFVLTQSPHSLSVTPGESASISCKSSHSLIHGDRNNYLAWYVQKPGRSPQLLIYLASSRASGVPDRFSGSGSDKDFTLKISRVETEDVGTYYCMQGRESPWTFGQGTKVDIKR	> 25 µg/mL
2) MS-80 (antibody, V domains shown) VH: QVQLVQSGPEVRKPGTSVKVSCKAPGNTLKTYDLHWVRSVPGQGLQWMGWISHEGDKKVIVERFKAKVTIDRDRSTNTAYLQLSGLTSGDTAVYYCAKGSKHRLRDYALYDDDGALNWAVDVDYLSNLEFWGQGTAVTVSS VL: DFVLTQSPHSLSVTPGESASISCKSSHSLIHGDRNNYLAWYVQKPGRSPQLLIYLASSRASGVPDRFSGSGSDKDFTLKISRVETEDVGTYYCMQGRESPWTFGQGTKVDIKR	> 25 µg/mL

Answer with reported neutralization IC80 of MS-92 (antibody, V domains shown) VH: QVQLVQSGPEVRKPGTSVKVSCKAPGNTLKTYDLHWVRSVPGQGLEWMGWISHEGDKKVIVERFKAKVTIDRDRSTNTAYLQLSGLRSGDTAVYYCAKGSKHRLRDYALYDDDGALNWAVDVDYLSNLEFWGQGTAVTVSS VL: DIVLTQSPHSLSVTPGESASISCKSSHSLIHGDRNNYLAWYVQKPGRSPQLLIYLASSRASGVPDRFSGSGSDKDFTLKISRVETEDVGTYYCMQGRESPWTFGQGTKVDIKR > 25 µg/mL
